Biological target: recombinant rat MASP2 active protease (amino acids 296-685, C-terminal His Tag) (rat, UniProt Q9JJS8 296-685)
Sequence (Q9JJS8 other isoform, or with tags, fused parts or gaps limits assumed): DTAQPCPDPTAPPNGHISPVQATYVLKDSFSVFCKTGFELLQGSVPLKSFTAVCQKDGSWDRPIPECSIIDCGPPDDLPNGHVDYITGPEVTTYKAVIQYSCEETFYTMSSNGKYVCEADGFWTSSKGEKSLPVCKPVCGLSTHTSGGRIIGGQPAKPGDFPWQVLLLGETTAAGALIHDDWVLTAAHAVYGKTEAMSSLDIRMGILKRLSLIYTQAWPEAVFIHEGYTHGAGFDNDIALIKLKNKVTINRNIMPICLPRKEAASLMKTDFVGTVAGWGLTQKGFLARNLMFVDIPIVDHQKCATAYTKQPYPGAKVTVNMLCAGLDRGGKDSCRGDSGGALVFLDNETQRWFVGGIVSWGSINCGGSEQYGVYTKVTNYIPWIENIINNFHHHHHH
Assay: cell-based or functional assay
Numbered stars: 1 amine (or outer) side, 2 acyl side, 3 side chain; on linkers, the order of the positions; unused ones are H or OH. Bridge positions count the residues as written; N and C are the ends. Square brackets hold non-standard residues; d marks the D form. Ends that are not written are not given here. X7 = 4‑(3,5-Dimethyl-1,2-oxazol-4-yl)‑L‑phenylalanine, Cc1noc(C)c1-c1ccc(C[C@H](N[*:1])C(=O)[*:2])cc1; X10 = (2R)‑2‑amino‑3‑(trifluoromethylsulfanyl)propanoic acid, O=C([C@H](CSC(F)(F)F)N[*:1])[*:2]; Oic = O=C(O)[C@@H]1C[C@@H]2CCCC[C@@H]2N1; tBuAla = CC(C)(C)C[C@H](N)C(=O)O; PEG4 = NCCOCCOCCOCCOCCC(=O)O; Pen = CC(C)(S)[C@H](N)C(=O)O; Orn = NCCC[C@H](N)C(=O)O; Sar = CNCC(=O)O
Mark n for rat MASP2 IC50 values under 70 nM, and y for everything at or above.

Some solved entries appear below for comparison.
1) [X7]ICSRSLP[Oic]I[Pen]IP-NH2 (disulfide 3-11; N-terminus assumed; SMILES CC[C@H](C)[C@H](NC(=O)[C@@H](N)Cc1ccc(-c2c(C)noc2C)cc1)C(=O)N[C@H]1CSSC(C)(C)[C@@H](C(=O)N[C@H](C(=O)N2CCC[C@H]2C(N)=O)[C@@H](C)CC)NC(=O)[C@H]([C@@H](C)CC)NC(=O)[C@@H]2C[C@@H]3CCCC[C@@H]3N2C(=O)[C@@H]2CCCN2C(=O)[C@H](CC(C)C)NC(=O)[C@H](CO)NC(=O)[C@H](CCCNC(=N)N)NC(=O)[C@H](CO)NC1=O) [Example 360: (4-(3,5-Dimethyl-1,2-oxazol-4-yl)-L-phenylalanine)-IC+SRSLP-(Oic)-I-(Pen)+IP-NH2] :: y
2) [Sar]ICSRSLP[Oic]I[Pen]IP[(2S)‑3‑(Triazol-1-yl)‑2‑(amino)propanoic acid]-NH2 (disulfide 3-11) [Example 437: ((N-Me)G)-IC+SRSLP-(Oic)-I-(Pen)+IP-((2S)-3-(Triazol-1-yl)-2-(amino)propanoic acid)-NH2] :: n
3) [Orn]ICSRS[X10]PPI[Pen]IPD-OH (disulfide 3-11; N-terminus assumed; SMILES CC[C@H](C)[C@H](NC(=O)[C@@H](N)CCCN)C(=O)N[C@H]1CSSC(C)(C)[C@@H](C(=O)N[C@H](C(=O)N2CCC[C@H]2C(=O)N[C@@H](CC(=O)O)C(=O)O)[C@@H](C)CC)NC(=O)[C@H]([C@@H](C)CC)NC(=O)[C@@H]2CCCN2C(=O)[C@@H]2CCCN2C(=O)[C@H](CSC(F)(F)F)NC(=O)[C@H](CO)NC(=O)[C@H](CCCNC(=N)N)NC(=O)[C@H](CO)NC1=O) [Example 529: (Orn)-IC+SRS-((2R)-2-amino-3-(trifluoromethylsulfanyl)propanoic acid)-PPI-(Pen)+IPD-OH] :: y

Could you now consider this next binder?
Inquiry: Hi, just wondering whether [Sar]ICSRS[tBuAla]PPI[Pen]IP[PEG4]-NH2 (disulfide 3-11; N-terminus assumed; SMILES CC[C@H](C)[C@H](NC(=O)CNC)C(=O)N[C@H]1CSSC(C)(C)[C@@H](C(=O)N[C@H](C(=O)N2CCC[C@H]2C(=O)NCCOCCOCCOCCOCCC(N)=O)[C@@H](C)CC)NC(=O)[C@H]([C@@H](C)CC)NC(=O)[C@@H]2CCCN2C(=O)[C@@H]2CCCN2C(=O)[C@H](CC(C)(C)C)NC(=O)[C@H](CO)NC(=O)[C@H](CCCNC(=N)N)NC(=O)[C@H](CO)NC1=O) [Example 174: ((N-Me)G)-IC+SRS-((tBu)A)-PPI-(Pen)+IP-(PEG3(16atoms))-NH2] shows rat MASP2 IC50 of 70 nM or higher.
Reply text: n
